src = patent US11046651B2

Each entry below carries its reported Ki.
biological target: 5-HT2A (Homo sapiens (Human)); assay: 5-HT2A binding assay ([3H]-Ketanserin, HEK293 stable cell line membranes); details: Table F, class symbols

INPUT: Can you look up the measured Ki of Cc1ccc2c(c1)Oc1cc(Cl)ccc1N=C2N1CCN(CC(C)(C)C(=O)O)CC1 for me?
OUTPUT: 1 to 25 nM

INPUT: Can you look up the measured Ki of Cc1ccc2c(c1)Oc1cc(F)ccc1N=C2N1CCN(CC(C)(C)C(=O)O)CC1 for me?
OUTPUT: 1 to 25 nM

INPUT: Can you look up the measured Ki of CC(C)(CN1CCN(C2=Nc3ccc(F)cc3Oc3cc(F)ccc32)CC1)C(=O)O for me?
OUTPUT: 1 to 25 nM

INPUT: Can you look up the measured Ki of Cc1ccc2c(c1)Oc1cc(F)ccc1N=C2N1CCN(CC2(C(=O)O)CC2)CC1 for me?
OUTPUT: 25 to 50 nM

INPUT: Can you look up the measured Ki of Cc1ccc2c(c1)Oc1cc(C)ccc1C(N1CCN(CC3(C(=O)O)CC3)CC1)=N2 for me?
OUTPUT: 1 to 25 nM

***
INPUT: Can you look up the measured Ki of CC(C)(CN1CCN(C2=Nc3ccccc3Cc3ccccc32)CC1)C(=O)O for me?
OUTPUT: > 50 nM

INPUT: Can you look up the measured Ki of Cc1ccc2c(c1)Oc1cc(Cl)ccc1N=C2N1CCN(CC2(C(=O)O)CC2)CC1 for me?
OUTPUT: 1 to 25 nM

INPUT: Can you look up the measured Ki of CCc1ccc2c(c1)Oc1cc(Cl)ccc1N=C2N1CCN(CC(C)(C)C(=O)O)CC1 for me?
OUTPUT: 1 to 25 nM

INPUT: Can you look up the measured Ki of CC(C)(CN1CCN(C2=Nc3ccccc3Oc3cccc(F)c32)CC1)C(=O)O for me?
OUTPUT: > 50 nM

INPUT: Can you look up the measured Ki of COc1ccc2c(c1)Oc1cc(F)ccc1N=C2N1CCN(CC(C)(C)C(=O)O)CC1 for me?
OUTPUT: 25 to 50 nM

INPUT: Can you look up the measured Ki of O=C(O)C1(CN2CCN(C3=Nc4ccc(F)cc4Oc4cc(F)ccc43)CC2)CC1 for me?
OUTPUT: 1 to 25 nM

----------
target: 5-HT2C (Homo sapiens (Human), UniProt P28335); assay: 5-HT2C binding assay ([3H]-Mesulergine, HEK293 membranes); settings: Table L, class symbols
Sequence (P28335 33-458): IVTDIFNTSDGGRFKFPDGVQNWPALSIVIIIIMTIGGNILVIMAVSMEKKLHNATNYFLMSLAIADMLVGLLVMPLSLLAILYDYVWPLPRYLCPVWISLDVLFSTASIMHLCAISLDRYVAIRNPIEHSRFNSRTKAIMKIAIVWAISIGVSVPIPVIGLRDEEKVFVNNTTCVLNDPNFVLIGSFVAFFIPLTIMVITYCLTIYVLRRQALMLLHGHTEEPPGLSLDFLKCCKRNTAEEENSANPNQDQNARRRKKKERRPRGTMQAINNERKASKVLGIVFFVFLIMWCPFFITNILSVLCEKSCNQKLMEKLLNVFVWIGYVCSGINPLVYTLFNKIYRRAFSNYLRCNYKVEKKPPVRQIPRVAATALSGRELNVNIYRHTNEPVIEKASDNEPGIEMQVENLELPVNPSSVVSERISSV
pKi: −log10 of the molar value.
Each entry below carries its reported pKi.

INPUT: Can you look up the measured pKi of Cc1ccc2c(c1)Oc1ccc(Cl)cc1N=C2N1CCN(CC(C)(C)C(=O)O)CC1 [compound 29] for me?
OUTPUT: > 7.00

INPUT: Can you look up the measured pKi of Cc1ccc2c(c1)C(N1CCN(CC(C)(C)C(=O)O)CC1)=Nc1cc(Cl)ccc1O2 [compound 34] for me?
OUTPUT: > 7.00

INPUT: Can you look up the measured pKi of CC(C)(CN1CCN(C2=Nc3ccccc3Oc3cccc(F)c32)CC1)C(=O)O [Compound No. 39] for me?
OUTPUT: > 7.00

INPUT: Can you look up the measured pKi of Cc1ccc2c(c1)Cc1ccccc1C(N1CCN(CC(C)(C)C(=O)O)CC1)=N2 [Compound No. 38] for me?
OUTPUT: > 7.00

INPUT: Can you look up the measured pKi of Cc1ccc2c(c1)Oc1cc(Cl)ccc1N=C2N1CCN(CC(C)(C)C(=O)O)CC1 [Compound No. 1] for me?
OUTPUT: < 6.30

Shift focus to the following entry.
INPUT: Can you look up the measured pKi of CC(C)(CN1CCN(C2=Nc3ccccc3Cc3cc(F)ccc32)CC1)C(=O)O [Compound No. 37] for me?
OUTPUT: < 6.30

----------
Each entry below carries its reported Ki.
molecular target: D2 (Homo sapiens (Human)); assay: D2 binding assay ([3H] 7-OH-DPAT, HEK293 D2L membranes); details: numeric values
Sequence (P14416 whole entry): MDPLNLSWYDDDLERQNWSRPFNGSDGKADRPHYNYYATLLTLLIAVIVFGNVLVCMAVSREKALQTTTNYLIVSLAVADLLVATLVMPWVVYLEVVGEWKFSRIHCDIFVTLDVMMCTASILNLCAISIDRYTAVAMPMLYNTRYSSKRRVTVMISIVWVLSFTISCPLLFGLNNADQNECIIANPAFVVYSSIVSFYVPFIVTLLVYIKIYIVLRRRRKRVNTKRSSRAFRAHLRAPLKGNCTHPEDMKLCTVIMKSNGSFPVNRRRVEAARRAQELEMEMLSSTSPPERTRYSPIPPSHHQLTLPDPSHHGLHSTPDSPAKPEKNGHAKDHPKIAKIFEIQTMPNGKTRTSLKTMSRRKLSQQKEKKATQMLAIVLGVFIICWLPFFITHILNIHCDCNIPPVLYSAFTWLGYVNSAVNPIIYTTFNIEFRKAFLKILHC
Use nM as the unit, but write only the number.

INPUT: Can you look up the measured Ki of CC(C)(CN1CCN(C2=Nc3ccccc3Oc3ccccc32)CC1)C(=O)O [A-5, reference compound] for me?
OUTPUT: 2870

***
INPUT: Can you look up the measured Ki of Cc1ccc2c(c1)N=C(N1CCN(CC(C)(C)C(=O)O)CC1)c1ccc(C)cc1O2 [A-4, reference compound] for me?
OUTPUT: 1900

INPUT: Can you look up the measured Ki of Cc1ccc2c(c1)N=C(N1CCN(CC(C)(C)C(=O)O)CC1)c1cc(C)ccc1O2 [A-2, reference compound] for me?
OUTPUT: 60

INPUT: Can you look up the measured Ki of Cc1ccc2c(c1)Oc1ccc(C)cc1C(N1CCN(CC(C)(C)C(=O)O)CC1)=N2 [A-3, reference compound] for me?
OUTPUT: 152

----------
Each entry below carries its reported T1/2 (h), projected human half-life.
assay: Human clearance and half-life projections (allometric scaling from monkey clearance); conditions: one-compartmental model, T1/2=0.693×(predicted Vd/predicted CL)

# example entries with known answers
INPUT: Can you look up the measured T1/2 (h), projected human half-life of CC(C)(CN1CCN(C2=Nc3ccccc3Cc3ccccc32)CC1)C(=O)O for me?
OUTPUT: 2 to 4 h

INPUT: Can you look up the measured T1/2 (h), projected human half-life of Cc1ccc2c(c1)Oc1cc(F)ccc1N=C2N1CCN(CC(C)(C)C(=O)O)CC1 for me?
OUTPUT: 12 to 25 h

INPUT: Can you look up the measured T1/2 (h), projected human half-life of CC(C)(CN1CCN(C2=Nc3ccccc3Oc3cc(C(F)F)ccc32)CC1)C(=O)O for me?
OUTPUT: 14 to 50 h

Shift focus to the following entry.
INPUT: Can you look up the measured T1/2 (h), projected human half-life of Cc1ccc2c(c1)Oc1cc(C)ccc1C(N1CCN(CC(C)(C)C(=O)O)CC1)=N2 for me?
OUTPUT: 4 to 8 h

----------
target: 5-HT2A (Homo sapiens (Human), UniProt P28223); experiment: 5-HT2A binding assay ([3H]-Ketanserin, HEK293 stable cell line membranes); conditions: numeric values
Measured endpoint: Ki (nM)
Use nM as the unit, but write only the number.

INPUT: Hi! What's the reported Ki for CC(CN1CCN(C2=Nc3ccccc3Cc3ccccc32)CC1)C(=O)O (stereo not shown) [A-1, reference compound] on 5-HT2A (Homo sapiens (Human), UniProt P28223)?
OUTPUT: 1380

----------
target: 5-HT2A (Homo sapiens (Human)); assay: 5-HT2A binding assay ([3H]-Ketanserin, HEK293 stable cell line membranes); conditions: Table F, class symbols
Measured endpoint: Ki

# example entries with known answers
INPUT: Can you look up the measured Ki of Cc1ccc2c(c1)Oc1cc(C)ccc1C(N1CCN(CC(C)(C)C(=O)O)CC1)=N2 for me?
OUTPUT: 1 to 25 nM

INPUT: Can you look up the measured Ki of CC(C)c1ccc2c(c1)Oc1cc(Cl)ccc1N=C2N1CCN(CC(C)(C)C(=O)O)CC1 for me?
OUTPUT: 1 to 25 nM

INPUT: Can you look up the measured Ki of Cc1ccc2c(c1)Oc1cc(F)ccc1C(N1CCN(CC3(C(=O)O)CC3)CC1)=N2 for me?
OUTPUT: 1 to 25 nM

INPUT: Can you look up the measured Ki of Cc1ccc2c(c1)Oc1cc(C(F)F)ccc1C(N1CCN(CC(C)(C)C(=O)O)CC1)=N2 for me?
OUTPUT: 1 to 25 nM

Shift focus to the following entry.
INPUT: Can you look up the measured Ki of Cc1ccc2c(c1)Cc1ccccc1C(N1CCN(CC(C)(C)C(=O)O)CC1)=N2 for me?
OUTPUT: > 50 nM

----------
Each entry below carries its reported Ki.
target: 5-HT2C (Homo sapiens (Human)); experiment: 5-HT2C binding assay ([3H]-Mesulergine, HEK293 membranes); conditions: Table L, class symbols

# example entries with known answers
INPUT: Hi! What's the reported Ki for CC(C)(CN1CCN(C2=Nc3cc(F)ccc3Oc3cc(F)ccc32)CC1)C(=O)O [compound 31] on 5-HT2C (Homo sapiens (Human))?
OUTPUT: < 100 nM

INPUT: Hi! What's the reported Ki for Cc1ccc2c(c1)N=C(N1CCN(CC(C)(C)C(=O)O)CC1)c1ccc(C(F)F)cc1O2 [compound 33] on 5-HT2C (Homo sapiens (Human))?
OUTPUT: < 100 nM

INPUT: Hi! What's the reported Ki for COc1ccc2c(c1)C(N1CCN(CC(C)(C)C(=O)O)CC1)=Nc1cc(Cl)ccc1O2 [compound 35] on 5-HT2C (Homo sapiens (Human))?
OUTPUT: 100 to 500 nM

***
INPUT: Hi! What's the reported Ki for Cc1ccc2c(c1)Oc1cc(F)ccc1N=C2N1CCN(CC(C)(C)C(=O)O)CC1 [Compound No. 6] on 5-HT2C (Homo sapiens (Human))?
OUTPUT: > 500 nM

INPUT: Hi! What's the reported Ki for Cc1ccc2c(c1)Oc1ccc(F)cc1N=C2N1CCN(CC(C)(C)C(=O)O)CC1 [compound 28] on 5-HT2C (Homo sapiens (Human))?
OUTPUT: 100 to 500 nM

INPUT: Hi! What's the reported Ki for CC(C)(CN1CCN(C2=Nc3ccccc3Cc3ccccc32)CC1)C(=O)O [Compound No. 8] on 5-HT2C (Homo sapiens (Human))?
OUTPUT: > 500 nM
